- measurement.target: RET (Homo sapiens, UniProt P07949)
- Sequence (P07949 29-1114): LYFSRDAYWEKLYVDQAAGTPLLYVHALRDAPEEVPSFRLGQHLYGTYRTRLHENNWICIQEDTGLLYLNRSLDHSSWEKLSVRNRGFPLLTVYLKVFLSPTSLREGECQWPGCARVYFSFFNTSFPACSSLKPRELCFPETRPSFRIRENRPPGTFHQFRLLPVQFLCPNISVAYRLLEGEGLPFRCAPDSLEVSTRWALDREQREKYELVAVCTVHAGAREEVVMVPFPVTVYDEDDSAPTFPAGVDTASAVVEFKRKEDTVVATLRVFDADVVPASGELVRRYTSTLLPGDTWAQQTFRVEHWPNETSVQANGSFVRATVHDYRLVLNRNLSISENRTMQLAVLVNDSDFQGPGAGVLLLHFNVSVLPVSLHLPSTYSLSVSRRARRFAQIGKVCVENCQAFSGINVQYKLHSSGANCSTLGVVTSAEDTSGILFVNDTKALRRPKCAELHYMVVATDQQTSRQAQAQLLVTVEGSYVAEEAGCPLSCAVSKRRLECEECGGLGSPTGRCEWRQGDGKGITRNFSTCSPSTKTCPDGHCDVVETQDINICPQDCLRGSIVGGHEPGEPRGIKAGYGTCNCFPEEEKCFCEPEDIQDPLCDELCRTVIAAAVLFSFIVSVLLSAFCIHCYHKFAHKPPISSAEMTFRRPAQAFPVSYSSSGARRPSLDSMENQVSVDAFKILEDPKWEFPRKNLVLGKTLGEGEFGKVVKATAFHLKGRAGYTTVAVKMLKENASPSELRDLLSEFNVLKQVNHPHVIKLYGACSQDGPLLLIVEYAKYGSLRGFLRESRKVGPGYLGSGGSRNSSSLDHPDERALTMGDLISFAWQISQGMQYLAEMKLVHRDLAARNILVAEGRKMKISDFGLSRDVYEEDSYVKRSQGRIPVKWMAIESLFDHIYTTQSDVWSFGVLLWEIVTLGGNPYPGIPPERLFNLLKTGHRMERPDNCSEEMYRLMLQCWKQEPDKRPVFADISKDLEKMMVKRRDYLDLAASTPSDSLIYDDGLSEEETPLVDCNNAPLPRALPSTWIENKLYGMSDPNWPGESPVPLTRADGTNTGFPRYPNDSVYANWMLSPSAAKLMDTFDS
experimental.endpoint: IC50

IC50 in this record for `COCCNCc1ccc(-c2cc3nccc(Oc4ccc(NC(=O)C5(C(=O)Nc6ccc(F)cc6)CC5)cc4F)c3s2)nc1` : 44 nM

----------
- measurement.target: JAK1 (Homo sapiens, UniProt P23458)
experimental.endpoint: IC50

IC50 in this record for COCCNCc1ccc(-c2cc3nccc(Oc4ccc(NC(=O)C5(C(=O)Nc6ccc(F)cc6)CC5)cc4F)c3s2)nc1 [MGCD516, Sitravatinib] : > 10 µM

----------
- measurement.target: UniProtKB P12931
experimental.endpoint: pIC50
pIC50 field: float, defined as -log10 of concentration (mol/L).

Item COCCNCc1ccc(-c2cc3nccc(Oc4ccc(NC(=O)C5(C(=O)Nc6ccc(F)cc6)CC5)cc4F)c3s2)nc1 [MGCD516, Sitravatinib] was tested on UniProtKB P12931; the reported pIC50 is 6.81

----------
- measurement.target: FMS (Homo sapiens)
- Sequence (P07333 20-972): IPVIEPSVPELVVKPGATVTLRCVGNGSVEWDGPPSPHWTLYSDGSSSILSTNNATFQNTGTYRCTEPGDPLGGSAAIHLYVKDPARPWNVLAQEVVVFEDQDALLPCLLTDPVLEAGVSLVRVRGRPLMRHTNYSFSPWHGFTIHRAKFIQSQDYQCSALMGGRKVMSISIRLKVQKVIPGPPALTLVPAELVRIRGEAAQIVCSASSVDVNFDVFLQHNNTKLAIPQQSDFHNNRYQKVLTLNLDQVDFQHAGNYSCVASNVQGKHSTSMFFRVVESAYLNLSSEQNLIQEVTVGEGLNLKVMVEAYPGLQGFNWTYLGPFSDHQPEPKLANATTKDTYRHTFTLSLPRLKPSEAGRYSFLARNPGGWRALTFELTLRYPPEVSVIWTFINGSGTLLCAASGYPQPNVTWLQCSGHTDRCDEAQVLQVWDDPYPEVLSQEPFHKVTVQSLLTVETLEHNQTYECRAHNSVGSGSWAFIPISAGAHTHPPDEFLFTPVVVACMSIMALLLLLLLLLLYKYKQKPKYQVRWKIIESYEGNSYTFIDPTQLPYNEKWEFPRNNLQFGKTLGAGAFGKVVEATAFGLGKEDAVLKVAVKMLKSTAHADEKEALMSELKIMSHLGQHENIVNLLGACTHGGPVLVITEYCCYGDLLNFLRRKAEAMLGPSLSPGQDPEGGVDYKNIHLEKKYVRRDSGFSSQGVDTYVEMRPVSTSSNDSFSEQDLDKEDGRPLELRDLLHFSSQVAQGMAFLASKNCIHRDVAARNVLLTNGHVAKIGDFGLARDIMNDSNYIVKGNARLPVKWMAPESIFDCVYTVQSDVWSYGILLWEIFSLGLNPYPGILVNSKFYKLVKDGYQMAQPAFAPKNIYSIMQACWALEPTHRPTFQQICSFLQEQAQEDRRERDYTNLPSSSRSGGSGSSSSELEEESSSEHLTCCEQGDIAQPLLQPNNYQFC
experimental.endpoint: IC50 (µM)
Report the value in µM with no unit label.

Item `COCCNCc1ccc(-c2cc3nccc(Oc4ccc(NC(=O)C5(C(=O)Nc6ccc(F)cc6)CC5)cc4F)c3s2)nc1` was tested on FMS (Homo sapiens); the reported IC50 is 2.29

----------
- measurement.target: EPHB3 (Homo sapiens)
- Sequence (P54753 34-998): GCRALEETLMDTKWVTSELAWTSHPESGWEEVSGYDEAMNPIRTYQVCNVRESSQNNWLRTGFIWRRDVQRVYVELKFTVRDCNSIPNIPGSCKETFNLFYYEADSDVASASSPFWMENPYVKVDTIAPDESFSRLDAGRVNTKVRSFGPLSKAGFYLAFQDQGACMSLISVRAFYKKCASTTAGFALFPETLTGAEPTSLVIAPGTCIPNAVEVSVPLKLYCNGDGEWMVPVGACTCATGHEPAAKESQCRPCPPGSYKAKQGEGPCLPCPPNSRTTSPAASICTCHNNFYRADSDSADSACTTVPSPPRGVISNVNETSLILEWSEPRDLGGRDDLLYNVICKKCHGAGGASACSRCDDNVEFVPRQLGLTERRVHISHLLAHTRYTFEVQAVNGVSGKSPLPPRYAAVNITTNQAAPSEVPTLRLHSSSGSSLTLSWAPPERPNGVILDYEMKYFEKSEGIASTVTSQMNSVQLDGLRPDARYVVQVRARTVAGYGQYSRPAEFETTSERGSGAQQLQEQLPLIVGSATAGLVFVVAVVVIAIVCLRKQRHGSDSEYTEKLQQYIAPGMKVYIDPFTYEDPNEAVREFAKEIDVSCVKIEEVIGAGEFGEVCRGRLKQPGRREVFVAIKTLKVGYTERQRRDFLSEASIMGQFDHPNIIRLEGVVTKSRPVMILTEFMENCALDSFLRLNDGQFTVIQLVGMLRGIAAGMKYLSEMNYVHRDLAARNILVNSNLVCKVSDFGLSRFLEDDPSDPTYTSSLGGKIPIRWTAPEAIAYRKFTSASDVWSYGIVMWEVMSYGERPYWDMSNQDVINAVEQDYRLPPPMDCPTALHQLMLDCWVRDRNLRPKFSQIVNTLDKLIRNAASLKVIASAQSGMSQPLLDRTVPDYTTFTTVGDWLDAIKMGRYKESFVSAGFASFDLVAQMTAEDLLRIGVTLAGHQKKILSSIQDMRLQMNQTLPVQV
experimental.endpoint: pIC50
pIC50 field: float, defined as -log10 of concentration (mol/L).

Item `COCCNCc1ccc(-c2cc3nccc(Oc4ccc(NC(=O)C5(C(=O)Nc6ccc(F)cc6)CC5)cc4F)c3s2)nc1` was tested on EPHB3 (Homo sapiens); the reported pIC50 is 6.60

----------
- measurement.target: EPHB4 (Homo sapiens, UniProt P54760)
experimental.endpoint: IC50 (nM)
Report the value in nM with no unit label.

Item `COCCNCc1ccc(-c2cc3nccc(Oc4ccc(NC(=O)C5(C(=O)Nc6ccc(F)cc6)CC5)cc4F)c3s2)nc1` was tested on EPHB4 (Homo sapiens, UniProt P54760); the reported IC50 is 12

----------
- measurement.target: DDR1 (Homo sapiens, UniProt Q08345)
- Sequence (Q08345 19-913): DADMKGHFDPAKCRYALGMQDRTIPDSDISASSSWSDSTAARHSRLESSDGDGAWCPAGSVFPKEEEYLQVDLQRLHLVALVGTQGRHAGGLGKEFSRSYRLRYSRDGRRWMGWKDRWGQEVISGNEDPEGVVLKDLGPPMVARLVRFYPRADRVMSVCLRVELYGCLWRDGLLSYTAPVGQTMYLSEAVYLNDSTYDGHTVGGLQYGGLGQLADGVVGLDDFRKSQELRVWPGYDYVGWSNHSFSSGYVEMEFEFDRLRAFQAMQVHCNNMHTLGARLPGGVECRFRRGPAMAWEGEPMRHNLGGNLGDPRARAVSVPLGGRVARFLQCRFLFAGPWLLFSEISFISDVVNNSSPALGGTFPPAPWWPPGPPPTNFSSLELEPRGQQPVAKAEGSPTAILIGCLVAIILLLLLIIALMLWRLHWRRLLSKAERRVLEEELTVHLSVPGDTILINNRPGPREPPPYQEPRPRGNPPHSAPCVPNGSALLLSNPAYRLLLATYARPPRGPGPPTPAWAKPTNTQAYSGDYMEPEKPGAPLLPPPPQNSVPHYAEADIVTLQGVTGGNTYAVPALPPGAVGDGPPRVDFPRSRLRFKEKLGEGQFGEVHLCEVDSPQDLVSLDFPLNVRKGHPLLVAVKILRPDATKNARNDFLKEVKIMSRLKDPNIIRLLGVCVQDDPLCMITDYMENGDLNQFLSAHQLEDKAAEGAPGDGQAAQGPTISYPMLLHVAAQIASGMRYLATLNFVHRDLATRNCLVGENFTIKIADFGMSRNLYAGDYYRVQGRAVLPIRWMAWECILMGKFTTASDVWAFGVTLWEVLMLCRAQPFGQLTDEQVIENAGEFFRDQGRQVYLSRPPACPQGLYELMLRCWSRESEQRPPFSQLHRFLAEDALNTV
- assay.text: In vitro kinase inhibition profile (biochemical)
- test.conditions: read-out: Biochemical (IC50 nmol/L)
experimental.endpoint: pIC50
pIC50 field: float, defined as -log10 of concentration (mol/L).

pIC50 in this record for COCCNCc1ccc(-c2cc3nccc(Oc4ccc(NC(=O)C5(C(=O)Nc6ccc(F)cc6)CC5)cc4F)c3s2)nc1 [MGCD516, Sitravatinib] : 7.54

----------
- measurement.target: ERBB2 (Homo sapiens, UniProt P04626)
pIC50: −log10 of the molar value.
experimental.endpoint: pIC50

pIC50 in this record for `COCCNCc1ccc(-c2cc3nccc(Oc4ccc(NC(=O)C5(C(=O)Nc6ccc(F)cc6)CC5)cc4F)c3s2)nc1` : < 5.30

----------
- measurement.target: LTK (Homo sapiens)
experimental.endpoint: pIC50
pIC50 field: float, defined as -log10 of concentration (mol/L).

pIC50 in this record for COCCNCc1ccc(-c2cc3nccc(Oc4ccc(NC(=O)C5(C(=O)Nc6ccc(F)cc6)CC5)cc4F)c3s2)nc1 [MGCD516, Sitravatinib] : 5.71

----------
- measurement.target: FGFR4 (Homo sapiens)
- Sequence (P22455 22-802): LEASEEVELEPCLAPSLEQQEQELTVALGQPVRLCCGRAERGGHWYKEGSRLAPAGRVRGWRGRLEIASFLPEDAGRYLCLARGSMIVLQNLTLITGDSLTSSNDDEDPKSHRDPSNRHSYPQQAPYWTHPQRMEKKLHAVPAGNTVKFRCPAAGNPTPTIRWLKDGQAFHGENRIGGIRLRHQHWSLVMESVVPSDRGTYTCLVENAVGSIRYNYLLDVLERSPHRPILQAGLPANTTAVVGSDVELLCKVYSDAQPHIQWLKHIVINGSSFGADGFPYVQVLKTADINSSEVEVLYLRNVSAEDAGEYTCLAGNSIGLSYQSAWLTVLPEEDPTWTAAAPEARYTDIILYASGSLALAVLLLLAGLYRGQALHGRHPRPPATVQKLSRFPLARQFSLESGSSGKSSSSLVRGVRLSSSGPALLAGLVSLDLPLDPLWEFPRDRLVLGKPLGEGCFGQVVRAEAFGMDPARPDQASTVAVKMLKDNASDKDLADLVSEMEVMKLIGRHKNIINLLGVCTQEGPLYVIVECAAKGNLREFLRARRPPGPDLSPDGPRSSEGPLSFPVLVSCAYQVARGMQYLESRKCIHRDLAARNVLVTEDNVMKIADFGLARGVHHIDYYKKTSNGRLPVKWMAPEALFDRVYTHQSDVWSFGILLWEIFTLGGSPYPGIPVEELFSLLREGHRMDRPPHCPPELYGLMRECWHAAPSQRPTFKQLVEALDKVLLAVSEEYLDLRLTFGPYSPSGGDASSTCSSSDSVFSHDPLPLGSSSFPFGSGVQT
pIC50: −log10 of the molar value.
experimental.endpoint: pIC50

Item `COCCNCc1ccc(-c2cc3nccc(Oc4ccc(NC(=O)C5(C(=O)Nc6ccc(F)cc6)CC5)cc4F)c3s2)nc1` was tested on FGFR4 (Homo sapiens); the reported pIC50 is < 5.30
